studyTarget: T1, human PAC1 receptor extracellular domain (ECD) (human, UniProt P41586 24-153)
T1 construct: also called PAC1 receptor ECD; PAC1 ECD
T1 sequence: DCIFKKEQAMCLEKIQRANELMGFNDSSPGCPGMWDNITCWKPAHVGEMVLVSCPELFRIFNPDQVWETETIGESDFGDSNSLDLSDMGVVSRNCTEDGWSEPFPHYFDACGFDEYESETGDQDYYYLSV
assayMethodText: yeast-displayed Fab, FACS, 10 nM PAC1 receptor ECD
measurementType: Normalized Binding Signal/Display Signal (B/D)
State the value, then name its unit.

Req: Could you share which Normalized Binding Signal/Display Signal (B/D) value was measured for anti-CGRP receptor variant 09, yeast-displayed Fab (Fab, V domains shown, also called Variant Ab ID 09) VH: QVQLVESGGGVVQPGRSLRLSCAASGFTFSSFGMHWVRQAPGKGLEWVAVISFAGEIDYYVDSVKGRFTISRDNSKNTLFLQMNSLRAEDTAVYYCARDRLNYYESSGYYHYKYYGMAVWGQGTTVTVSS VL: QSVLTQPPSVSAAPGQKVTISCSGSSSNIGNNYVSWYQQLPGTAPKLLIYDNNKRPSGIPDRFSGSKSGTSATLGITGLQTGDEADYYCGTWDSRLSAVVFGGGTKLTVLG ?
Resp: 0.17 ratio

Sourced from patent US20220363770A1
